Source listed as the supplement of paper PMC13380429.

system: U2OS; assay: drug sensitivity score (DSS) for viability; higher = more toxic; extreme values may be limits of the assay; settings: 72 h

>  <compound>
CCN(CC)CCOCCOC(=O)C1(c2ccccc2)CCCC1

>  <drug sensitivity score>
0

$$$$
>  <compound>
COc1ccc2c(c1)C=C1Cn3c-2c(C2CCCCC2)c2ccc(cc23)C(=O)NS(=O)(=O)N(C)CCOCCN(C)C1=O

>  <drug sensitivity score>
0

$$$$
>  <compound>
O=C(O)c1c(Sc2ccccc2)c2cc(Cl)ccc2n1Cc1ccc(Cl)cc1

>  <drug sensitivity score>
0

$$$$
>  <compound>
CN1[C@@H]2CC[C@H]1C[C@@H](OC(=O)[C@H](CO)c1ccccc1)C2

>  <drug sensitivity score>
0

$$$$
>  <compound>
O=C(C[S+]([O-])C(c1ccccc1)c1ccccc1)NO (stereo unspecified)

>  <drug sensitivity score>
0

$$$$
>  <compound>
Nc1nc(=O)n([C@@H]2O[C@H](CO)[C@@H](O)[C@@H]2F)cc1I

>  <drug sensitivity score>
0

$$$$
>  <compound>
CC(C)(C)NCC(O)c1ccccc1Cl (stereo unspecified)

>  <drug sensitivity score>
0

$$$$
>  <compound>
CN(C(=O)CN1C(=O)COc2cc(Cl)c(Cl)cc21)[C@@H](CN1CCCC1)c1ccc(-c2cccc(C(N)=O)c2)cc1

>  <drug sensitivity score>
6.2

$$$$
>  <compound>
CN1C(=O)C(Cc2c[nH]c3ccccc23)NC1=S (stereo unspecified)

>  <drug sensitivity score>
0

$$$$
>  <compound>
O=C(CCCl)NCc1ccccc1 [beclamide]

>  <drug sensitivity score>
0

$$$$
>  <compound>
C[N+]1(C)CCC(=C(c2ccccc2)c2ccccc2)CC1

>  <drug sensitivity score>
0

$$$$
>  <compound>
Cc1oc(-c2ccccc2)nc1CCC(=O)c1ccc(CC2SC(=O)NC2=O)cc1 (stereo unspecified)

>  <drug sensitivity score>
0

$$$$
>  <compound>
O=C(Nc1ccccc1)c1cc([N+](=O)[O-])ccc1Cl

>  <drug sensitivity score>
0

$$$$
>  <compound>
CC(=O)Nc1cccc(O)c1

>  <drug sensitivity score>
0

$$$$
>  <compound>
O=c1c(-c2ccccc2)c1-c1ccccc1

>  <drug sensitivity score>
0.5

$$$$
>  <compound>
Cc1c2oc3c(C)ccc(C(=O)N[C@@H]4C(=O)N[C@H](C(C)C)C(=O)N5CCC[C@H]5C(=O)N(C)CC(=O)N(C)[C@@H](C(C)C)C(=O)O[C@@H]4C)c3nc-2c(C(=O)N[C@@H]2C(=O)N[C@H](C(C)C)C(=O)N3CCC[C@H]3C(=O)N(C)CC(=O)N(C)[C@@H](C(C)C)C(=O)O[C@@H]2C)c(N)c1=O

>  <drug sensitivity score>
27.7

$$$$

====

test system: Caco-2; experiment: cell viability relative to DMSO; higher = less toxic; conditions: 72 h; 1 nM
property.measured: cell viability (%)

>  <compound>
CN1CCN(C2CCN(C(=O)Nc3cc(Oc4ccc(NC(=O)C5(C(=O)Nc6ccc(F)cc6)CC5)c(F)c4)ccn3)CC2)CC1

>  <observed>
102

$$$$
>  <compound>
CCOc1cc(C(C)(C)C)ccc1C1=N[C@@](C)(c2ccc(Cl)cc2)[C@@](C)(c2ccc(Cl)cc2)N1C(=O)N1CCN(CCCS(C)(=O)=O)CC1

>  <observed>
101

$$$$
>  <compound>
CCc1cccc(CC)c1NC(=O)N1Cc2[nH]nc(NC(=O)c3ccc(N4CCN(C)CC4)cc3)c2C1

>  <observed>
101

$$$$
>  <compound>
C[C@]12CC[C@H]3[C@@H](CCC4=CC(=O)CC[C@@]43C)[C@@H]1CC[C@@H]2O

>  <observed>
104

$$$$
>  <compound>
CN1C(=O)C(Cc2c[nH]c3ccccc23)NC1=S (stereo not given)

>  <observed>
97.7

$$$$
